- measuredTarget: MGDG synthase in isolated spinach chloroplast envelope membranes (Spinacia oleracea)
- Construct: envelope membranes purified from the lysate by sucrose centrifugation gradient; from tissue; host or cells: envelope membranes of chloroplasts from spinach leaves
- testProtocol: MGDG synthase activity in envelope membrane fractions isolated from spinach chloroplasts
- Format: biochemical
- conditionLabel: Table 1, obtained in the same manner as FIG. 4; read-out: Inhibitory effect on MGDG synthesis in isolated spinach chloroplast envelope membranes
pIC50: −log10 of the molar value. Structures can show the parent of a compound that is named as a salt.
parameterMeasured: pIC50

# annotated cases, reported pIC50 shown
compound: O=C(OCCN(Cc1ccccc1)Cc1ccccc1OCc1ccccc1)N1CCC(n2c(=O)[nH]c3ccccc32)CC1
measuredTarget: MGDG synthase in isolated spinach chloroplast envelope membranes (Spinacia oleracea)
pIC50: 4.70
--
compound: O=C(OCCN(CCCc1ccccc1)Cc1ccccc1)N1CCC(n2c(=O)[nH]c3ccccc32)CC1 [Compound 46, hydrochloride]
measuredTarget: MGDG synthase in isolated spinach chloroplast envelope membranes (Spinacia oleracea)
pIC50: 4.82
--
compound: C[C@@H](COC(=O)N1CCC(n2c(=O)[nH]c3ccccc32)CC1)N(Cc1ccccc1)Cc1ccc(F)cc1 [Compound 51, hydrochloride]
measuredTarget: MGDG synthase in isolated spinach chloroplast envelope membranes (Spinacia oleracea)
pIC50: 4.40
--
compound: O=C(OCCN(Cc1ccccc1)Cc1ccnc2ccccc12)N1CCC(n2c(=O)[nH]c3ccccc32)CC1 [Compound 57, hydrochloride]
measuredTarget: MGDG synthase in isolated spinach chloroplast envelope membranes (Spinacia oleracea)
pIC50: 4.12
--
compound: O=C(OCCN(C/C=C/c1ccccc1)Cc1ccccc1)N1CCC(n2c(=O)[nH]c3ccccc32)CC1
measuredTarget: MGDG synthase in isolated spinach chloroplast envelope membranes (Spinacia oleracea)
pIC50: 4.30
--
compound: C[C@@H](CNC(=S)N1CCC(n2c(=O)[nH]c3ccccc32)CC1)N(Cc1ccccc1)Cc1ccccc1
measuredTarget: MGDG synthase in isolated spinach chloroplast envelope membranes (Spinacia oleracea)
pIC50: 4.30
--
compound: C[C@@H](COC(=O)N1CCC(n2c(=O)[nH]c3ccccc32)CC1)N(CCCc1ccccc1)Cc1ccccc1 [Compound 52, hydrochloride]
measuredTarget: MGDG synthase in isolated spinach chloroplast envelope membranes (Spinacia oleracea)
pIC50: 4.22
--
compound: C[C@@H](COC(=O)N1CCC(n2c(=O)[nH]c3ccccc32)CC1)N(Cc1ccccc1)Cc1ccc(Br)cc1 [Compound 41, hydrochloride]
measuredTarget: MGDG synthase in isolated spinach chloroplast envelope membranes (Spinacia oleracea)
pIC50: 4.30
--
compound: O=C(OCCCN(Cc1ccccc1)Cc1cccs1)N1CCC(n2c(=O)[nH]c3ccccc32)CC1 [Compound 66, hydrochloride]
measuredTarget: MGDG synthase in isolated spinach chloroplast envelope membranes (Spinacia oleracea)
pIC50: 4.30

I. O=C(OCCN(Cc1ccccc1)Cc1ccncc1)N1CCC(n2c(=O)[nH]c3ccccc32)CC1
II. CCN(CCOC(=O)N1CCC(n2c(=O)[nH]c3ccccc32)CC1)c1ccccc1
III. C[C@@H](COC(=O)N1CCC(n2c(=O)[nH]c3ccccc32)CC1)N(Cc1ccccc1)Cc1ccco1
IV. C[C@@H](COC(=O)N1CCC(n2c(=O)[nH]c3ccccc32)CC1)N(Cc1ccccc1)Cc1cccc(OCc2ccccc2)c1 [Compound 60, hydrochloride]
## Task Arrange these compounds by their pIC50, starting with the largest number. Put the labels in the requested order and list them out.
## Result IV, III, I, II

----------
- measuredTarget: MGDG synthase in isolated spinach chloroplast envelope membranes (Spinacia oleracea, UniProt Q9SM44)
- Construct: envelope membranes purified from the lysate by sucrose centrifugation gradient; from tissue; host or cells: envelope membranes of chloroplasts from spinach leaves
- Sequence (Q9SM44 99-522): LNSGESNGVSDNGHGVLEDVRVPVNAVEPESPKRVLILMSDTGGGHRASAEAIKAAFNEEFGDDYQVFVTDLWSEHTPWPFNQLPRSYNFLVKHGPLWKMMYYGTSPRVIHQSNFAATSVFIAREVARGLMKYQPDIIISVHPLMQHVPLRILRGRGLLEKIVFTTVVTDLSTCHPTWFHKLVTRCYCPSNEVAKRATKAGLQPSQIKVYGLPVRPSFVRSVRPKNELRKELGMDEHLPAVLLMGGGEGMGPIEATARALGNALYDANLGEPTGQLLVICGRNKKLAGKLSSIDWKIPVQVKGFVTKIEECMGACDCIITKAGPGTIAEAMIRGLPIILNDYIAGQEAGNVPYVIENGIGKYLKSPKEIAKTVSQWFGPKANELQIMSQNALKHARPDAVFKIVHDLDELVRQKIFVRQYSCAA
- testProtocol: MGDG synthase activity in envelope membrane fractions isolated from spinach chloroplasts
- Type: biochemical
- conditionLabel: Table 1, obtained in the same manner as FIG. 4; read-out: Inhibitory effect on MGDG synthesis in isolated spinach chloroplast envelope membranes
pIC50: −log10 of the molar value. Where a name gives a salt, the structure may show the parent alone.
parameterMeasured: pIC50

Examples from the recorded data:
compound: CC(C)[C@@H](COC(=O)N1CCC(n2c(=O)[nH]c3ccccc32)CC1)N(Cc1ccccc1)Cc1ccccc1
parameterMeasured: pIC50
observedValue: 5.10

compound: COc1cccc(CN(CCCOC(=O)N2CCC(n3c(=O)[nH]c4ccccc43)CC2)Cc2ccccc2)c1 [Compound 68, hydrochloride]
parameterMeasured: pIC50
observedValue: 4.10

compound: COc1cccc(CN(CCOC(=O)N2CCC(n3c(=O)[nH]c4ccccc43)CC2)Cc2ccccc2)c1 [Compound 48, hydrochloride]
parameterMeasured: pIC50
observedValue: 4.82

1. O=C(OCCCN(Cc1ccccc1)Cc1cccc(Cl)c1)N1CCC(n2c(=O)[nH]c3ccccc32)CC1 [Compound 69, hydrochloride]
2. CC(C)C[C@@H](COC(=O)N1CCC(n2c(=O)[nH]c3ccccc32)CC1)N(Cc1ccccc1)Cc1ccccc1
## Task Quick check, higher pIC50 between 1 and 2 ? Which one? Tell me its label.
## Result 2
(2: 4.92, 1: 4.52)

----------
- measuredTarget: MGDG synthase in isolated spinach chloroplast envelope membranes (Spinacia oleracea, UniProt Q9SM44)
- Construct: envelope membranes purified from the lysate by sucrose centrifugation gradient; from tissue; host or cells: envelope membranes of chloroplasts from spinach leaves
- testProtocol: MGDG synthase activity in envelope membrane fractions isolated from spinach chloroplasts
- Type: biochemical
- conditionLabel: Table 1, obtained in the same manner as FIG. 4; read-out: Inhibitory effect on MGDG synthesis in isolated spinach chloroplast envelope membranes
pIC50: −log10 of the molar value. Structures can show the parent of a compound that is named as a salt.
parameterMeasured: pIC50

P. COc1ccc(CN(CCOC(=O)N2CCC(n3c(=O)[nH]c4ccccc43)CC2)Cc2ccccc2)cc1 [Compound 47, hydrochloride]
Q. O=C(OCCCN(Cc1ccccc1)Cc1cccc(OCc2ccccc2)c1)N1CCC(n2c(=O)[nH]c3ccccc32)CC1 [Compound 84]
R. C[C@@H](COC(=O)N1CCCC(n2c(=O)[nH]c3ccccc32)CC1)N(Cc1ccccc1)Cc1ccccc1 (some centres unmarked) [Compound 4]
## Task Please rank the 3 items above; order by pIC50, the highest number leading. Please list the labels in the order you were asked to rank them.
## Result P, Q, R
(P: 4.82, Q: 4.35, R: 3.70)

----------
- measuredTarget: MGDG synthase in isolated spinach chloroplast envelope membranes (Spinacia oleracea)
- Construct: envelope membranes purified from the lysate by sucrose centrifugation gradient; from tissue; host or cells: envelope membranes of chloroplasts from spinach leaves
- testProtocol: MGDG synthase activity in envelope membrane fractions isolated from spinach chloroplasts
- Format: biochemical
- conditionLabel: Table 1, obtained in the same manner as FIG. 4; read-out: Inhibitory effect on MGDG synthesis in isolated spinach chloroplast envelope membranes
- Source text: All the operations have been carried out as described in the article by Maréchal, E. et al., J. Biol. Chem., 1995, 270, 5714-5722. Crude chloroplasts were obtained from 3-4 kg of spinach leaves and purified by isopycnic centrifugation using Percoll gradients. […]
Where a name gives a salt, the structure may show the parent alone.
parameterMeasured: IC50 (µM)

// worked examples, IC50 included
molecule: O=C(OCCCN(Cc1ccccc1)Cc1cccc2ccccc12)N1CCC(n2c(=O)[nH]c3ccccc32)CC1 [Compound 70, hydrochloride]
IC50, µM: 60

molecule: O=C(CCCN(Cc1ccccc1)Cc1ccccc1)N1CCC(n2c(=O)[nH]c3ccccc32)CC1 [Compound 24]
IC50, µM: 25

molecule: O=C(OCCN(Cc1ccccc1)Cc1cccc(Oc2ccccc2)c1)N1CCC(n2c(=O)[nH]c3ccccc32)CC1 [Compound 49, hydrochloride]
IC50, µM: 8

molecule: O=C(OCCN(Cc1ccccc1)Cc1ccc([N+](=O)[O-])cc1)N1CCC(n2c(=O)[nH]c3ccccc32)CC1 [Compound 28]
IC50, µM: 20

molecule: CC(C)(C)C(COC(=O)N1CCC(n2c(=O)[nH]c3ccccc32)CC1)N(Cc1ccccc1)Cc1ccccc1 (stereo not shown) [Compound 31]
IC50, µM: 50

I. COc1ccc(CN(CCCOC(=O)N2CCC(n3c(=O)[nH]c4ccccc43)CC2)Cc2ccccc2)cc1 [Compound 42, hydrochloride]
II. O=C(OCCN(Cc1ccccc1)Cc1ccc(F)cc1)N1CCC(n2c(=O)[nH]c3ccccc32)CC1 [Compound 45, hydrochloride]
## Task When I and II are compared, which has the higher number for IC50? # reply format: chosen label
## Result I
(I: 50 µM, II: 5 µM)
